# Target: Adenosine receptor A2a (Bos taurus)
# Method description: Displacement of [3H]-CGS- 21680 from adenosine A2a receptor of bovine striatal membrane
Recorded Ki values for a group of compounds are listed next.
Experimental readout: Ki (µM)

• Cn1c2ccccc2n2c(=O)c(-c3ccco3)nnc12 = 6.3
• Oc1c(-c2ccsc2)nnc2nc3ccccc3n12 = 5
• O=c1c(-c2ccco2)nnc2n(Cc3ccccc3)c3ccccc3n12 = 1.24
• Oc1ccc(-c2nnc3nc4ccccc4n3c2O)cc1O = 3.5

---

Recorded inhibition for the following compounds
# Target: Adenosine receptor A1 (Bos taurus) (UniProt P28190)
# Sequence (whole entry): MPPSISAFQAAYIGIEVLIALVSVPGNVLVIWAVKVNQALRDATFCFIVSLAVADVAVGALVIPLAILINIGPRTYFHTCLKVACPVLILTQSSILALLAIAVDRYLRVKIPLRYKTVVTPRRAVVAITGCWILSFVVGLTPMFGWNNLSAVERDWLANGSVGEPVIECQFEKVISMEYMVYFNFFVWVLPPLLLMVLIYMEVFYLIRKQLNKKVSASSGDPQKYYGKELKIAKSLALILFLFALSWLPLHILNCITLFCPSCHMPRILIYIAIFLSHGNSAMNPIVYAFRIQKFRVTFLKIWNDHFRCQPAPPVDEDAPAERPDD
# Method description: Displacement of [3H]CHA from adenosine A1 receptor in bovine cortical membrane at 10 uM
# Assay type: cell membranes
Experimental readout: inhibition (%)

- Cn1c2ccccc2n2c(=O)cnnc12: 0
- Cc1nnc2n(C)c3ccccc3n2c1=O: 46
- COc1ccc(-c2nnc3n(C)c4ccccc4n3c2=O)cc1OC: 24
- COc1ccc(-c2nnc3nc4ccccc4n3c2O)cc1: 30
- Cn1c2ccccc2n2c(=O)c(-c3ccc(Cl)cc3)nnc12: 66
- Oc1c(-c2ccc(Cl)cc2)nnc2nc3ccccc3n12: 44
- Oc1cnnc2nc3ccccc3n12: 34

---

# System: Adenosine receptor A2a (Bos taurus)
# Method description: Displacement of [3H]-CGS- 21680 from adenosine A2a receptor in bovine striatal membrane at 10 uM.
# Condition set: Striatum
Experimental readout: inhibition (%)

• Cn1c2ccccc2n2c(=O)c(-c3cccs3)nnc12 = 19
• Cn1c2ccccc2n2c(=O)c(-c3ccc(Cl)cc3)nnc12 = 0
• Cn1c2ccccc2n2c(=O)c(-c3ccsc3)nnc12 = 55
• Cc1nnc2n(C)c3ccccc3n2c1=O = 0
• Cn1c2ccccc2n2c(=O)cnnc12 = 8
• Oc1c(-c2ccc(Cl)cc2)nnc2nc3ccccc3n12 = 8
• O=c1c(-c2ccsc2)nnc2n(Cc3ccccc3)c3ccccc3n12 = 60
• Cn1c2ccccc2n2c(=O)c(-c3ccc(O)cc3)nnc12 = 43
• Cc1nnc2nc3ccccc3n2c1O = 39
• COc1ccc(-c2nnc3n(C)c4ccccc4n3c2=O)cc1OC = 18
• COc1ccc(-c2nnc3nc4ccccc4n3c2O)cc1OC = 35
• Cn1c2ccccc2n2c(=O)c(-c3ccccc3)nnc12 = 25
• COc1ccc(-c2nnc3n(C)c4ccccc4n3c2=O)cc1 = 7
• COc1ccc(-c2nnc3nc4ccccc4n3c2O)cc1 = 16
• Oc1cnnc2nc3ccccc3n12 = 0

---

# Target: Adenosine receptor A1 (Bos taurus)
# Method description: Intrinsic activity towards Adenosine A1 receptor using [3H]DPCPX from bovine cortical membranes without GTP
pKi: −log10 of the molar value.
Experimental readout: pKi

* Oc1c(-c2ccccc2)nnc2nc3ccccc3n12 | 6.85

---

# Target: Adenosine receptor A1 (Bos taurus)
# Method description: Displacement of [3H]CHA from adenosine A1 receptors was determined in bovine cortical membranes
# Type: cell membranes
Experimental readout: log10(Ki) (log10 of the value in nM)

- Cn1c2ccccc2n2c(=O)c(-c3ccccc3)nnc12: 1.80
- Oc1c(-c2ccsc2)nnc2nc3ccccc3n12: 2.08
- Oc1ccc(-c2nnc3nc4ccccc4n3c2O)cc1: 2.40
- Cn1c2ccccc2n2c(=O)c(-c3ccc(O)c(O)c3)nnc12: 2.66
- Cc1nnc2nc3ccccc3n2c1O: 3.59
- O=c1c(-c2ccsc2)nnc2n(Cc3ccccc3)c3ccccc3n12: 2.65
- COc1ccc(-c2nnc3nc4ccccc4n3c2O)cc1OC: 3.25
- O=c1c(-c2ccccc2)nnc2n(Cc3ccccc3)c3ccccc3n12: 2.44
- Cn1c2ccccc2n2c(=O)c(-c3cccs3)nnc12: 2.37
- Cn1c2ccccc2n2c(=O)c(-c3ccsc3)nnc12: 1.89
- Oc1c(-c2cccs2)nnc2nc3ccccc3n12: 2.47
- Oc1c(-c2ccccc2)nnc2nc3ccccc3n12: 1.93
- O=c1c(-c2ccco2)nnc2n(Cc3ccccc3)c3ccccc3n12: 3.00
- Oc1ccc(-c2nnc3nc4ccccc4n3c2O)cc1O: 2.67
- Cn1c2ccccc2n2c(=O)c(-c3ccc(O)cc3)nnc12: 2.31
- Oc1c(-c2ccco2)nnc2nc3ccccc3n12: 2.42
- COc1ccc(-c2nnc3n(C)c4ccccc4n3c2=O)cc1: 3.31
- O=c1c(-c2ccco2)nnc2n(-c3ccccc3)c3ccccc3n12: 2.50
- O=c1c(-c2ccc(O)cc2)nnc2n(Cc3ccccc3)c3ccccc3n12: 2.54
- O=c1c(-c2ccccc2)nnc2n(-c3ccccc3)c3ccccc3n12: 1.26
- Cn1c2ccccc2n2c(=O)c(-c3ccco3)nnc12: 2.91

---

# Target: UniProt P28190
# Method description: Intrinsic activity towards Adenosine A1 receptor as displacement of [3H]DPCPX from bovine cortical membranes with 1 mM GTP
pKi: −log10 of the molar value.
Recorded measurements of pKi, one per entry
Experimental readout: pKi

• C[C@H](Cc1ccccc1)Nc1ncnc2c1ncn2[C@@H]1O[C@H](CO)[C@@H](O)[C@H]1O [(R)-PIA] = 7.70
• O=c1c(-c2ccccc2)nnc2n(-c3ccccc3)c3ccccc3n12 = 7.60
• Oc1c(-c2ccccc2)nnc2nc3ccccc3n12 = 6.70
• Cn1c2ccccc2n2c(=O)c(-c3ccccc3)nnc12 = 6.92
• O=c1c(-c2ccccc2)nnc2n(Cc3ccccc3)c3ccccc3n12 = 6.74

These measurements were taken from ChEMBL document CHEMBL1134334.
